Data credit: patent US20230293738A1

Molecular target: T1, human 4Ig-B7H3 (B7H3-4Ig-His) (human, UniProt Q5ZPR3 29-466)
T1 construct: Recombinant His-tagged protein immobilised on a CM5 chip; also called 41g-B7H3; human 4Ig-B7-H3 (dominant isoform); not shown: His tag
T1 sequence: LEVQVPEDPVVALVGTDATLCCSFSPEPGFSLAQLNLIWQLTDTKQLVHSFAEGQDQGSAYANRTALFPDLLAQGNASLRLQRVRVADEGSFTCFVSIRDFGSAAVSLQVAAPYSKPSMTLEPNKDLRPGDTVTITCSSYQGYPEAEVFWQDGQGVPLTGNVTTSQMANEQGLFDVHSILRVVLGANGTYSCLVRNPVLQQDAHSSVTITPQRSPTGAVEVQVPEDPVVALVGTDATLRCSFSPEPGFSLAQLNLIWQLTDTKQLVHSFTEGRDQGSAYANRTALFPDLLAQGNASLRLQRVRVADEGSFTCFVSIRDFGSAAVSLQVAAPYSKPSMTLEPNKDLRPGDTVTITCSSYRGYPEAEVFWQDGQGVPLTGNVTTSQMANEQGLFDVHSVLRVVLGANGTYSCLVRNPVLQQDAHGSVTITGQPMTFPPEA
Test: SPR, Biacore T200, 4Ig-B7H3-His on CM5 chip, 1:1 fit
Protocol: Both human B7H3 41g and 21g proteins were dissolved in PBS (Phosphate-Buffered Saline) to make 0.1 mg/ml stock solution and stored in −80° C. B7-H3 proteins were immobilized onto the CM5 sensor chip using Amine Coupling Kit. Both proteins were diluted to 10 ug/ml with 10 mM Sodium acetate, pH 5.0. […] A blank immobilized surface was used as a control […]
Measure Name: Kd (nM)
Supply the numeric figure in nM, leaving out any unit text.

Binder	Kd (nM)
175Lu-DOTA-8H9-antibody (CAR2.6) (antibody, mouse IgG1, kappa, V domains shown, p-SCN-Bn-DOTA conjugated (CAR 2.6 per antibody), labelled with cold lutetium-175; sites not stated) VH: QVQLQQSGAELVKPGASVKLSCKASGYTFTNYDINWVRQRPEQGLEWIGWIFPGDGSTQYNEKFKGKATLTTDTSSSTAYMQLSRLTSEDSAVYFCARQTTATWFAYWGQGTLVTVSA VL: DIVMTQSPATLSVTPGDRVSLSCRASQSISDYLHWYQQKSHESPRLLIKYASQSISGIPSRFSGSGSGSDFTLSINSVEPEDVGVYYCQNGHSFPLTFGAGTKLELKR	15.7
175Lu-DTPA-8H9-antibody (CAR3) (antibody, mouse IgG1, kappa, V domains shown, p-SCN-Bn-CHX-A″-DTPA conjugated (CAR 3 per antibody), labelled with cold lutetium-175; sites not stated) VH: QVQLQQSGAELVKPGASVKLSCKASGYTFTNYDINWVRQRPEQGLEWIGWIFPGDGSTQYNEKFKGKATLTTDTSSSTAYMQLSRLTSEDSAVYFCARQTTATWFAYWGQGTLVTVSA VL: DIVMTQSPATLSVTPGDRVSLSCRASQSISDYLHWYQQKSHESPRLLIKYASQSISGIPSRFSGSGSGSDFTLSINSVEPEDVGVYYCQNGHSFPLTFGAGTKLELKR	16.2
175Lu-DTPA-8H9-antibody (CAR3.6) (antibody, mouse IgG1, kappa, V domains shown, p-SCN-Bn-CHX-A″-DTPA conjugated (CAR 3.6 per antibody), labelled with cold lutetium-175; sites not stated) VH: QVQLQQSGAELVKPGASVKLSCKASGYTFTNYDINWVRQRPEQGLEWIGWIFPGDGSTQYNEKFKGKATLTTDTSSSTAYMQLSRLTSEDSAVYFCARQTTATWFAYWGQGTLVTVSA VL: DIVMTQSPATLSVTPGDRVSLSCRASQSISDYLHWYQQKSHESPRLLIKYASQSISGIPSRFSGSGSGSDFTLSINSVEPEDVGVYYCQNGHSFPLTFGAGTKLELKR	18.5

// query Would you kindly share the measured Kd for hu8H9-3.1 (antibody, V domains shown) VH: QVQLVQSGAEVVKPGASVKLSCKTSGYTFTNYDINWVRQRPGQGLEWIGWIFPGDDSTQYNEKFKGKATLTTDTSTSTAYMELSSLRSEDTAVYFCARQTTGTWFAYWGQGTLVTVSS VL: EIVMTQSPATLSVSPGERVTLSCRASQSISDYLYWYQQKSHESPRLLIKYASQSISGIPARFSGSGSGSEFTLTINSVEPEDVGVYYCQNGHSFPLTFGQGTKLELKR ?
// result 8.87

// query Let us now turn to 127I-8H9-antibody P76501A (antibody, mouse IgG1, kappa, V domains shown, labelled with iodine-127; sites not stated) VH: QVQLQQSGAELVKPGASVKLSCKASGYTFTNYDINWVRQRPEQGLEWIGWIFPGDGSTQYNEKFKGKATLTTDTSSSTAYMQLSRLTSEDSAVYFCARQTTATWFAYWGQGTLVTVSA VL: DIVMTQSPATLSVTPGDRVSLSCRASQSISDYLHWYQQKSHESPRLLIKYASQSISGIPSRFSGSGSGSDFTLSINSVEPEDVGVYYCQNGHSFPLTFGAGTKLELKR
// result 0.666

// query Let us now turn to 175Lu-DTPA-8H9-antibody (CAR6.1) (antibody, mouse IgG1, kappa, V domains shown, p-SCN-Bn-CHX-A″-DTPA conjugated (CAR 6.1 per antibody), labelled with cold lutetium-175; sites not stated) VH: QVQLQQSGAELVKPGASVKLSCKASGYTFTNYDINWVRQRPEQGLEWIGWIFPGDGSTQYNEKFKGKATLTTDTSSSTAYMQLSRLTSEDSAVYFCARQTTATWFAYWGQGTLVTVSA VL: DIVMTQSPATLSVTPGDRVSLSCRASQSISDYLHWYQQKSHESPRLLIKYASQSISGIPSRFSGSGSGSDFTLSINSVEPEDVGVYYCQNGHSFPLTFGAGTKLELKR
// result 34
